- assay.remarks: Binding affinity against [3H]-3-PPP labelled sigma sites
readout.name: Ki (nM)

structure_as_smiles=CN(CCc1ccccc1)CCN1CCCC1 readout_name=Ki value_reported=7.4
